The values you see were collected from patent US5811241A.

# target.under.test: human BK2 receptor (Homo sapiens, UniProt P30411)
# Construct: expressed in transfected cells; host or cells: CHO-K1 (ATCC)
# Sequence (P30411 1-391): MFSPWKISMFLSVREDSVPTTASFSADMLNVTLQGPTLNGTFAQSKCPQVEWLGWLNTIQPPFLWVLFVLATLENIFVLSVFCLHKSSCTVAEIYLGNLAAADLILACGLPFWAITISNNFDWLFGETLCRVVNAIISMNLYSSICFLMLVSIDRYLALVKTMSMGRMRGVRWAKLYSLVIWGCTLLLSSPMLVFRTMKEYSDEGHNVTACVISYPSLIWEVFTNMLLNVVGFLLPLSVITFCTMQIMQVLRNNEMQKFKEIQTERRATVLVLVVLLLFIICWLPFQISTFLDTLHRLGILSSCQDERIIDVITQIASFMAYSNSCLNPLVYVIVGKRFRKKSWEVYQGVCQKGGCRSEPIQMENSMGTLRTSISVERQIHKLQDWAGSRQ
# experiment: Bradykinin 2 human receptor clone binding assay (inhibition of radio-labeled bradykinin binding)
# condition.notes: compound resynthesized in pure form, read-out: IC50, BK binding inhibition
# Protocol: Bradykinin 2 and Bradykinin 1 Human Receptor Clone Binding Assays Human bradykinin B2 receptor was expressed in CHO-K1 (ATCC) cells. […] B2 Binding assays were performed by incubating human clone membrane solution with ^3 H-bradykinin (final concentration 0.3 nM) with or without test compounds in assay buffer (Buffer B with 1 mM dithiothreitol), at room temperature, for 45 minutes, at a final volume of 315 ul. […] Filtermats were counted in 9.5 ml Wallec Beta-Plate Scint, in Wallec 1450 MicroBeta Counter.
quantity.kind: IC50 (µM)

compound="N=C(N)NCCCCCCN1CC(=O)N(Cc2ccc3ccccc3c2)C(C2Cc3ccccc3C2)C1=O (racemic)" target_under_test="human BK2 receptor (Homo sapiens, UniProt P30411)" reported_value=4.1
compound="N=C(N)NCCCCCCCN1CC(=O)N(Cc2ccc(-c3ccccc3)cc2)C(C2Cc3ccccc3C2)C1=O (racemic)" target_under_test="human BK2 receptor (Homo sapiens, UniProt P30411)" reported_value=13
